Taken from patent US7091225B2.

EC50: recorded values
Target: human PPAR alpha (Homo sapiens)
Sequence (Q07869 239-466 limits assumed): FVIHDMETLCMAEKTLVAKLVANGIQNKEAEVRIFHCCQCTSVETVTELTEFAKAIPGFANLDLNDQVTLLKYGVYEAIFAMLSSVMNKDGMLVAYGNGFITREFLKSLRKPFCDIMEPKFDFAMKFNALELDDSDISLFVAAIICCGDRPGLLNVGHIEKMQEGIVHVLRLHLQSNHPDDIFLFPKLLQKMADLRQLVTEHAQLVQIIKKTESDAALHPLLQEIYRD
Assay: Transient transfection (transactivation) assay in CV-1 cells, hPPAR alpha
Settings: PPAR transactivation activity; GAL4-PPAR LBD chimera in CV-1 cells; concentration achieving 50% of maximum activity; read-out: human αEC50
TEST READOUT: EC50 (nM)

* Cc1nc(-c2ccc(C(F)(F)F)cc2)sc1COc1cccc(CSCC(=O)O)c1 | 10
* Cc1nc(-c2ccc(C(F)(F)F)cc2)sc1COc1cccc(COC(C)(C)C(=O)O)c1 | 2
